Kindly find below IC50 information for Tyrosine-protein kinase JAK1 (Homo sapiens, UniProt P23458) taken from the literature.

{"COMPOUND": "Cc1ncc(-c2cnc3[nH]ccc3c2N[C@@H]2CCCN(C(=O)CC#N)C2)s1", "TEST SYSTEM": "Tyrosine-protein kinase JAK1 (Homo sapiens, UniProt P23458)", "IC50": "10 to 100 nM"}
{"COMPOUND": "Cn1cc(-c2cc3nccn3c(-c3cnn(C4(CC#N)CCN(CC(F)(F)F)C4)c3)n2)cn1 (stereo not shown)", "TEST SYSTEM": "Tyrosine-protein kinase JAK1 (Homo sapiens, UniProt P23458)", "IC50": "100 to 1000 nM"}
{"COMPOUND": "CN(c1ncnc2[nH]ccc12)N1CCCC(CC(=O)NCC#N)C1 (stereo not shown)", "TEST SYSTEM": "Tyrosine-protein kinase JAK1 (Homo sapiens, UniProt P23458)", "IC50": "100 to 1000 nM"}
{"COMPOUND": "CCCCO[C@H]1CNc2cc(Nc3ncc(C(N)=O)c(NC4CC4)n3)ccc2OC1", "TEST SYSTEM": "Tyrosine-protein kinase JAK1 (Homo sapiens, UniProt P23458)", "IC50": "10 to 100 nM"}
{"COMPOUND": "O=C(Nc1cccc2c(-c3ccnc(NC(=O)C4CC4)c3)c[nH]c12)c1cccc(F)c1", "TEST SYSTEM": "Tyrosine-protein kinase JAK1 (Homo sapiens, UniProt P23458)", "IC50": "100 to 1000 nM"}
{"COMPOUND": "CN(c1ncnc2[nH]ccc12)C1CCC2(CC1)CCN(C(=O)c1ccc(C#N)c(F)c1)CC2", "TEST SYSTEM": "Tyrosine-protein kinase JAK1 (Homo sapiens, UniProt P23458)", "IC50": "100 to 1000 nM"}
{"COMPOUND": "CC1(N2CC(CC#N)(n3cc(-c4ncnc5[nH]ccc45)cn3)C2)CCN(C(=O)c2cccc(F)c2)CC1", "TEST SYSTEM": "Tyrosine-protein kinase JAK1 (Homo sapiens, UniProt P23458)", "IC50": "5 to 20 nM"}
{"COMPOUND": "Cn1cc(S(=O)(=O)NC23CC(n4cnc5cnc6[nH]ccc6c54)(C2)C3)cn1", "TEST SYSTEM": "Tyrosine-protein kinase JAK1 (Homo sapiens, UniProt P23458)", "IC50": "90.5 nM"}
{"COMPOUND": "O=C(CN1CCNCC1)Nc1cccc(-c2cnc3ccccc3n2)c1", "TEST SYSTEM": "Tyrosine-protein kinase JAK1 (Homo sapiens, UniProt P23458)", "IC50": "> 20000 nM"}
{"COMPOUND": "Cc1nn(CCC#N)cc1-c1nc(-c2cnn(C)c2)cc2nccn12", "TEST SYSTEM": "Tyrosine-protein kinase JAK1 (Homo sapiens, UniProt P23458)", "IC50": "> 1000 nM"}
{"COMPOUND": "N#CCCC(=O)NC12CC(n3cnc4cnc5[nH]ccc5c43)(C1)C2", "TEST SYSTEM": "Tyrosine-protein kinase JAK1 (Homo sapiens, UniProt P23458)", "IC50": "8.06 nM"}
{"COMPOUND": "N#CCC1(n2cc(-c3ncnc4[nH]ccc34)cn2)CN(C2CCN(C(=O)c3ccnc(C(F)(F)F)n3)CC2)C1", "TEST SYSTEM": "Tyrosine-protein kinase JAK1 (Homo sapiens, UniProt P23458)", "IC50": "< 10 nM"}
{"COMPOUND": "Cc1ccc(C(=O)Nc2cccc(OC(F)(F)F)c2)cc1-c1ccc2c(c1)[nH]c1ncncc12", "TEST SYSTEM": "Tyrosine-protein kinase JAK1 (Homo sapiens, UniProt P23458)", "IC50": "≤ 500 nM"}
{"COMPOUND": "N#CCC1(n2cc(-c3ncnc4[nH]ccc34)cn2)CN(C2CCN(C(=O)c3ccc(-c4cc(F)cc(C#N)c4)c(F)c3)CC2)C1", "TEST SYSTEM": "Tyrosine-protein kinase JAK1 (Homo sapiens, UniProt P23458)", "IC50": "≤ 5 nM"}
{"COMPOUND": "C[C@@H](O)c1nc2cnc3ccsc3c2n1[C@H]1CC[C@H](O)CC1", "TEST SYSTEM": "Tyrosine-protein kinase JAK1 (Homo sapiens, UniProt P23458)", "IC50": "≤ 1000 nM"}
{"COMPOUND": "CCN1CCN(c2ccc(Nc3ncc(C)c(Nc4ccc5cn[nH]c5c4)n3)c(OC)c2)CC1", "TEST SYSTEM": "Tyrosine-protein kinase JAK1 (Homo sapiens, UniProt P23458)", "IC50": "320 nM"}
{"COMPOUND": "CC1CCNC(=O)c2ccc(c(N)c2)-c2ccnc(n2)Nc2ccc(Oc3cccnc3)c(c2)COC1 (stereo not shown)", "TEST SYSTEM": "Tyrosine-protein kinase JAK1 (Homo sapiens, UniProt P23458)", "IC50": "1000 to 10000 nM"}
{"COMPOUND": "CN(C)C(=O)c1ccc(-c2cc3c(N[C@@H]4CC[C@](C)(N)C4(C)C)c(C(N)=O)cnn3c2)cc1", "TEST SYSTEM": "Tyrosine-protein kinase JAK1 (Homo sapiens, UniProt P23458)", "IC50": "0.6 nM"}
{"COMPOUND": "N#CCC(=O)N1CCC[C@@H](Nc2c(-c3cccc(CO)n3)cnc3[nH]ccc23)C1", "TEST SYSTEM": "Tyrosine-protein kinase JAK1 (Homo sapiens, UniProt P23458)", "IC50": "≤ 10 nM"}
{"COMPOUND": "Cc1cc(Nc2nc(NC3CCN(CCC#N)CC3)nc3ccccc23)n[nH]1", "TEST SYSTEM": "Tyrosine-protein kinase JAK1 (Homo sapiens, UniProt P23458)", "IC50": "8.67 nM"}
{"COMPOUND": "O=C(NCCC1(O)CC(F)(F)C1)c1noc2c1CN(c1ncnc3[nH]ccc13)CC2", "TEST SYSTEM": "Tyrosine-protein kinase JAK1 (Homo sapiens, UniProt P23458)", "IC50": "500 to 2000 nM"}
{"COMPOUND": "N#CCC(=O)N1CCC[C@@H](Nc2c(-c3ccn(CCO)n3)cnc3[nH]ccc23)C1", "TEST SYSTEM": "Tyrosine-protein kinase JAK1 (Homo sapiens, UniProt P23458)", "IC50": "≤ 10 nM"}
